Source of measurements: patent US20230381333A1

- tgt: human GLP-1 receptor (human, UniProt P43220 24-463)
- test: cell-based or functional assay
Bridge positions count the residues as written; N and C are the ends. Square brackets hold non-standard residues; d marks the D form. Ends that are not written are not given here. * marks the point of attachment. Acetyl(2-(4-imidazolyl)) = O=C(Cc1c[nH]cn1)*; Aib = CC(C)(N)C(=O)O
Kind request: treat 10% as inclusive, so In vitro activity compared to native-type peptide (%), vs GLP-1 at 10% or higher is Met, anything lower is Not met.

Q: Dear colleague, could you confirm whether {Acetyl(2-(4-imidazolyl))}-[Aib]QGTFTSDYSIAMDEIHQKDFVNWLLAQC (bridge 15-19) [triple agonist of SEQ ID NO: 85] has In vitro activity compared to native-type peptide (%), vs GLP-1 at or above 10%?
A: Not met

Q: Does the binder Y[Aib]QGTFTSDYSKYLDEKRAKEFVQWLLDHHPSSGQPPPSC (bridge 16-20) [triple agonist of SEQ ID NO: 42] have recorded In vitro activity compared to native-type peptide (%), vs GLP-1 that is 10% or more?
A: Met
